Target: recombinant human SAE enzyme (Homo sapiens, UniProt Q9UBT2)
Sequence (Q9UBT2 1-640): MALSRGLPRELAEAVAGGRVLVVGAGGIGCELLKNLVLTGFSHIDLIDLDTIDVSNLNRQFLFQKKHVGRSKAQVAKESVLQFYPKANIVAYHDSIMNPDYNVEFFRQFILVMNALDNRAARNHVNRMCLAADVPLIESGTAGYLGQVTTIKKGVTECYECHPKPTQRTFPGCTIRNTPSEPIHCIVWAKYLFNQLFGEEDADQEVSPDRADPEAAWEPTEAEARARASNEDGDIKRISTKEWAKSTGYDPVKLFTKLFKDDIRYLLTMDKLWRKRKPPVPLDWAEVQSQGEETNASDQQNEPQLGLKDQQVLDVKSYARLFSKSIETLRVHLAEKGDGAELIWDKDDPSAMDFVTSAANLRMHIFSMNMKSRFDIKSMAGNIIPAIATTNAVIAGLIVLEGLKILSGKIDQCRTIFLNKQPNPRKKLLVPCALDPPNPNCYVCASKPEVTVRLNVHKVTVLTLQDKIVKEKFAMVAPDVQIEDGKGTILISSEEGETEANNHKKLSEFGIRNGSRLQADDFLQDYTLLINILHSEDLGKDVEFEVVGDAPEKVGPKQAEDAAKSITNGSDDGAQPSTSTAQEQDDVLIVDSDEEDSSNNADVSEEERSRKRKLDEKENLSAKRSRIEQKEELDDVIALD
Sequence (Q9UBE0 1-346 partner): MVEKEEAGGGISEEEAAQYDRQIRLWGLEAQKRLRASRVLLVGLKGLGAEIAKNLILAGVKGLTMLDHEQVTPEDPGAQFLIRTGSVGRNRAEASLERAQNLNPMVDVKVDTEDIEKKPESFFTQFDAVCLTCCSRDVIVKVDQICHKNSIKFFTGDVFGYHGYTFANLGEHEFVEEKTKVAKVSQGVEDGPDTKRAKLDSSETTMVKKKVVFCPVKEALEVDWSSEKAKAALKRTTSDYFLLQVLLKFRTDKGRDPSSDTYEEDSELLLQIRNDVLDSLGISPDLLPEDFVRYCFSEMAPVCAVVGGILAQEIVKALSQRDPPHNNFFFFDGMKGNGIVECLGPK
Experiment: SAE HTRF Enzyme Assay
Type: biochemical
Conditions: compound concentration 0.111 μM; read-out: Percent Inhibition
Procedure: The SAE enzymatic reaction totals 50 μl and contains 50 mM HEPES Hemisodium (pH 7.5), 0.05% BSA, 5 mM MgCl2, 0.5 μM ATP, 250 μM GSH, 0.01 μM Ubc9-GST, 0.125 μM Sumo-Flag and 0.11 nM recombinant human SAE enzyme. […] After incubation for 2 hours at 24° C., quantification of FRET is performed on the Pherostar™ (BMG Labtech). Percentage inhibition values at a single concentration or enzyme inhibition (IC50) values are determined from those curves. […]
Property Name: inhibition at 0.111 µM

Examples with answers:
1) NS(=O)(=O)OC[C@H]1C[C@@H](Nc2ncncc2C(=O)c2ccn(Cc3ccccc3OC(F)(F)F)n2)[C@H](O)[C@@H]1O [Compound I-98]    96%
2) NS(=O)(=O)OC[C@H]1C[C@@H](Nc2ncncc2C(=O)c2ccn(Cc3cccc(OC(F)F)c3)n2)C[C@@H]1O [Compound I-117]    98%
3) NS(=O)(=O)OC[C@H]1C[C@@H](Nc2ncncc2C(=O)c2ccn(Cc3ccc(F)c(I)c3)n2)[C@@H](F)[C@@H]1O [Compound I-178]    99%
4) NS(=O)(=O)OC[C@H]1C[C@@H](Nc2ncncc2C(=O)c2ccn(Cc3csc4ccc(Cl)cc34)n2)[C@H](O)[C@@H]1O [Compound I-285]    99%
5) NS(=O)(=O)OC[C@H]1C[C@@H](Nc2ncncc2C(=O)c2cc(C(F)(F)F)n(Cc3ccccc3)c2)[C@@H](F)[C@@H]1O [Compound I-94]    97%

Identify measured inhibition at 0.111 µM corresponding to CC(C)(C)C#CCn1ccc(C(=O)c2cncnc2N[C@@H]2C[C@H](COS(N)(=O)=O)[C@@H](O)C2)n1 [Compound I-113]
81%

Identify measured inhibition at 0.111 µM corresponding to NS(=O)(=O)OC[C@H]1C[C@@H](Nc2ncncc2C(=O)c2ccn(Cc3cccc(C(F)(F)F)c3)c2)C[C@@H]1O [Compound I-129]
99%

Identify measured inhibition at 0.111 µM corresponding to Cc1cc(C(=O)c2cncnc2N[C@@H]2C[C@H](COS(N)(=O)=O)[C@@H](O)C2)nn1Cc1cccc(Cl)n1 [Compound I-99]
> 99%

Identify measured inhibition at 0.111 µM corresponding to NS(=O)(=O)OC[C@H]1C[C@@H](Nc2ncncc2C(=O)c2ccn(Cc3ccc4nccn4c3)n2)C[C@@H]1O [Compound I-144]
97%

Identify measured inhibition at 0.111 µM corresponding to NS(=O)(=O)OC[C@H]1C[C@@H](Nc2ncncc2C(=O)c2ccn(CC#CC3(O)COC3)n2)C[C@@H]1O [Compound I-275]
18%

Identify measured inhibition at 0.111 µM corresponding to NS(=O)(=O)OC[C@H]1C[C@@H](Nc2ncncc2C(=O)c2cc(Cl)n(Cc3ccc(C(F)(F)F)o3)c2)[C@@H](F)[C@@H]1O [Compound I-36]
99%

Identify measured inhibition at 0.111 µM corresponding to NS(=O)(=O)OC[C@H]1C[C@@H](Nc2ncncc2C(=O)c2ccn(CC3CCCCC3)n2)[C@H](O)[C@@H]1O [Compound I-82]
96%

Identify measured inhibition at 0.111 µM corresponding to NS(=O)(=O)OC[C@H]1C[C@@H](Nc2ncncc2C(=O)c2ccn(Cc3cccc(Br)c3)n2)C[C@@H]1O [Compound I-11]
100%

Identify measured inhibition at 0.111 µM corresponding to NS(=O)(=O)OC[C@H]1C[C@@H](Nc2ncncc2C(=O)c2ccn(Cc3cccc(C(F)(F)F)c3)n2)C[C@@H]1O [Compound I-140]
98%

###

This listing pairs compounds with measured IC50.
Target: recombinant human SAE enzyme (Homo sapiens)
Assay: SAE HTRF Enzyme Assay
Conditions: class symbols A-C

Identify measured IC50 corresponding to NS(=O)(=O)OC[C@H]1C[C@@H](Nc2ncncc2C(=O)c2ccn(CC3CC3c3ccccc3)c2)[C@@H](F)[C@@H]1O (single isomer, unassigned) [Compound I-359]
10 to 100 nM

###

Target: recombinant human SAE enzyme (Homo sapiens, UniProt Q9UBT2)
Assay: SAE HTRF Enzyme Assay
Conditions: class symbols A-C
This listing pairs compounds with measured IC50.

Examples with answers:
1. NS(=O)(=O)OC[C@H]1C[C@@H](Nc2ncncc2C(=O)c2ccn(Cc3ccccc3F)n2)[C@H](O)[C@@H]1O    < 10 nM
2. NS(=O)(=O)OC[C@H]1C[C@@H](Nc2ncncc2C(=O)c2ccn(Cc3c(F)cc(F)cc3F)n2)[C@H](O)[C@@H]1O    < 10 nM
3. NS(=O)(=O)OC[C@H]1C[C@@H](Nc2ncncc2C(=O)c2ccn(Cc3cc(C(F)(F)F)ccc3C(F)(F)F)n2)[C@H](O)[C@@H]1O    < 10 nM
4. NS(=O)(=O)OC[C@H]1C[C@@H](Nc2ncncc2C(=O)c2ccn(Cc3ccc(F)c(Cl)c3)n2)[C@H](O)[C@@H]1O    < 10 nM
5. CC(c1cccc(Cl)c1)n1ccc(C(=O)c2cncnc2N[C@@H]2C[C@H](COS(N)(=O)=O)[C@@H](O)C2)n1 (single isomer, unassigned) [Compound I-133]    10 to 100 nM

Give recombinant human SAE enzyme (Homo sapiens, UniProt Q9UBT2) IC50 for the following compound: "NS(=O)(=O)OC[C@H]1C[C@@H](Nc2ccncc2C(=O)c2ccn(Cc3cccc(Br)c3)n2)C[C@@H]1O"
< 10 nM

###

Target: recombinant human SAE enzyme (Homo sapiens)
Experiment: SAE HTRF Enzyme Assay
Assay type: biochemical
Conditions: compound concentration 0.111 μM; 0.111 µM
Labelling: Percent Inhibition reported below 80% becomes yes; at or above becomes no.

Worked examples, 4 molecules total:
1. CC#CC(C)n1ccc(C(=O)c2cncnc2N[C@@H]2C[C@H](COS(N)(=O)=O)[C@@H](O)C2)n1 (single isomer, unassigned)    yes
2. CCC(c1cccc(Br)c1)n1ccc(C(=O)c2cncnc2N[C@@H]2C[C@H](COS(N)(=O)=O)[C@@H](O)[C@@H]2F)c1 (single isomer, unassigned)    no
3. CC(c1cccc(Cl)c1)n1ccc(C(=O)c2cncnc2N[C@@H]2C[C@H](COS(N)(=O)=O)[C@@H](O)C2)n1 (single isomer, unassigned) [Compound I-133]    yes
4. NS(=O)(=O)OC[C@H]1C[C@@H](Nc2ncncc2C(=O)c2ccn(C3CCc4ccccc43)n2)[C@H](O)[C@@H]1O (single isomer, unassigned)    no

Quick check: Percent Inhibition of CC(c1ccc(Cl)o1)n1ccc(C(=O)c2cncnc2N[C@@H]2C[C@H](COS(N)(=O)=O)[C@@H](O)C2)n1 (single isomer, unassigned) under 80%?
no

Attribution: patent US9695154B2
